Test: NCI Yeast Anticancer Drug Screen. Data for the mlh1 rad18 strain (AID 175)
Settings: S. cerevisiae mlh1 rad18 strain growth inhibition; at 5.0 µM (retest, dose inferred, filed as 0.5); stronger effect = higher value
Compounds without any hit were thinned out: in the full panel of roughly 79,000, 15% have a hit.
Returns one of 1 or 0; 1 when growth inhibition is >= 20%.

Is growth inhibition at least 20%? Consider Cc1ccc(SCc2ccccc2Cl)nn1 0

Could you tell me if the measured growth inhibition of CC(C)OC(=S)SSSC(=S)OC(C)C reaches 20% or more? 0

Threshold query (growth inhibition >= 20%) on O=C(/C=C/c1ccccc1Cl)c1ccc(F)cc1 0

Reported growth inhibition reaches at least 20% for O=C(NNc1ccccc1)C(O)C(O)C(O)C(O)C(O)C(O)C(O)CO (centres undefined) ? 1

Say whether CCCC/C(=N/Nc1ccc([N+](=O)[O-])cc1)C(=O)O shows growth inhibition of 20% or more. 1

Given the entry O=C(CN1CCCCC1)CC(O)(C(F)(F)F)C(F)(F)F , answer whether its growth inhibition meets or surpasses 20%. 1

// inclusive: growth inhibition at least 20%? input: C=C1N(S(=O)(=O)c2ccc(C)cc2)C(=O)OCC12CCCC2 0

In plain terms: is recorded growth inhibition at least 20% for CCCCCCCCCCCCCC(=O)CBr ? 0

Exam item: decide whether the reported growth inhibition for C[n+]1c(/C=C/c2ccccc2Cl)ccc2ccccc21 is at least 20%. 0

Entry NC(=S)NNc1c([N+](=O)[O-])cnn(-c2ccccc2)c1=O : is its growth inhibition no less than 20%? 0

Has O=C1C=CC(=O)C1=Cc1ccc(Cl)c(Cl)c1 a recorded growth inhibition greater than or equal to 20%? 1

Quick check, growth inhibition >= 20%? O=C1NC(c2ccccc2)(c2ccccc2)C(=O)N1SC(Cl)(Cl)Cl 1

Check this compound for growth inhibition at or above 20%: CC(CN(C)C)C(/C=C/c1ccc(F)cc1)=N\Nc1ccccc1 (centres undefined) 0

Tell me whether growth inhibition is at least 20% here: O=C(CSc1nnc(-c2ccc(N=Cc3ccc(Cl)cc3)cc2)o1)Nc1ccc(Cl)cc1Cl 1

###

Experiment: NCI Yeast Anticancer Drug Screen. Data for the rad50 strain (AID 155);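 also: 0% = growth of vehicle-only cultures of the same strain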
Settings: S. cerevisiae rad50 strain growth inhibition; at 50.0 µM (retest, dose inferred, filed as 5.0); stronger effect = higher value
This is part of a sample that, as a whole, favours compounds with a hit. Of some 79,000 tested, about 15% had one in any assay. Where a SMILES comes first, the peptide text is derived from it. The star is where a group is joined. Cbz = O=C(OCc1ccccc1)*
Experimental Endpoint: growth inhibition (%)
Provide the reading as a plain figure in %.

I would be grateful if you could share the reported growth inhibition for O=C1C(Cl)=C(Cl)C(=O)C2CC=CCC12 (stereo not given) . 97

Record request: growth inhibition value, item CSC(=S)N/N=C/c1cccc(C)n1 71

Using the record for CSc1ccc(/C=C2/C[N+](C)(C)C/C(=C/c3ccc(SC)cc3)C2=O)cc1 , report its growth inhibition. 41

Dear colleague, I am looking for the recorded growth inhibition of the following compound: NC(=S)N/N=C\C12CC3CC(CC(C3)C1)C2 98

growth inhibition for COc1ccc2c(c1)CN1C(CCC3c4ccccc4NC31)C2 (stereo not given) ? 16

Looking for the measured growth inhibition of COc1ccc(OC)c(/C=C/NC=O)c1 , can you help? 10

Bench note: what growth inhibition did NC(Cc1ccc(O)cc1O)C(=O)O (stereo not given) show? 2

Give its growth inhibition value. Item: CCCCCCCC/C(C=O)=C\c1ccccc1 -25

Quick one: growth inhibition for C=Cc1cc(N=Nc2ccc([N+](=O)[O-])cc2)ccc1N(C)C ? 12

Data request, read-out growth inhibition, for O=[N+]([O-])c1ccc(C2=C[P+](c3ccccc3)(c3ccccc3)C=C(c3ccccc3)O2)cc1 97

Value lookup for growth inhibition; key = C/C(=N\NC(=S)N1CCN(c2cnccn2)CC1)c1ccccn1 98

What does the record list as growth inhibition for CC(=O)OCc1ccc([N+](=O)[O-])o1 ? 78

May I ask what growth inhibition has been recorded for C[n+]1c(-c2ccc(/C=N/Nc3n[nH]c(=S)n3/N=C/c3ccc(-c4cn5ccsc5[n+]4C)cc3)cc2)cn2ccsc21 ? 97

Please report the recorded growth inhibition for C=CCc1ccc2c(C)cc[n+](C)c2c1O . 99

Return reported growth inhibition; argument: Cc1ccc(NC(=O)COC(=O)c2cccc3c(=O)c4ccccc4[nH]c23)cc1 89

For the compound shown here, C1=C(CC2=C[P+](c3ccccc3)(c3ccccc3)C=C(c3ccccc3)O2)OC(c2ccccc2)=C[P+]1(c1ccccc1)c1ccccc1 , give the reported growth inhibition. 96

Need growth inhibition, item Cc1cc(N=Nc2ccccc2)ccc1O 99

Given the compound Cc1c2[nH]c3ccc(Br)cc3c2c(C)c2[nH]ccc(=O)c12 , what is its reported growth inhibition? 72

Record request: growth inhibition value, item O=NNc1ncccc1OCc1ccccc1 6

// query growth inhibition value for entry C/C(=N\NC(N)=S)c1ccc(C2CCCCC2)cc1 97

Consider the compound shown here: O=C(Nc1ccc(O)cc1O)c1ccccc1 What is its recorded growth inhibition? 53

What value of measured growth inhibition is listed for Cc1cc(N/N=C(\c2ccccc2)c2ccccn2)nc2ccccc12 ? 91

# input compound: Cc1c(-c2ccccc2)ccnc1/C=N/NC(=S)Nc1ccc(N(C)C)cc1 ; wanted: its growth inhibition 94

growth inhibition for O=C(OCC1CCCO1)N(c1ccccc1)c1ccccc1 (stereo not given) ? -5

So what does the record say about growth inhibition for O=C1c2ccccc2C(=O)c2cc(S(=O)(=O)Cl)ccc21 ? 99

Find the recorded growth inhibition belonging to O=P(C(=S)Nc1ccccc1Cl)(c1ccccc1)c1ccccc1 and report it. 96

Entry CS(=O)(=O)OCCN(CCOS(C)(=O)=O)c1ccc(C=Nc2ccc3ccccc3c2)cc1 has what growth inhibition? 80

Fill in the blank: the reported growth inhibition of CC(C)COC(=O)C1C2C=CC(CC2)C1C(=O)OCC(C)C (stereo not given) is ____. 30

Consider the compound shown here: CCOC(=O)CNC(=O)CNC(=O)CNC(=O)OCc1ccccc1 (Cbz-Gly-Gly-Gly-OEt) What is its recorded growth inhibition? -3

What growth inhibition value was documented for this compound, O=[N+]([O-])/C(Cl)=C(\Sc1ccccc1)C(Cl)=C(Cl)Cl ? 99

###

For each entry below, report its growth inhibition value.
Test: NCI Yeast Anticancer Drug Screen. Data for the cln2 rad14 strain (AID 165);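 also: 0% = growth equal to vehicle treated cultures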
Conditions: S. cerevisiae cln2 rad14 strain, at 50.0 µM, stronger effect = higher value
Compounds without any hit were thinned out: in the full panel of roughly 79,000, 15% have a hit. Where a SMILES comes first, the peptide text is derived from it. Bridges are numbered along the chain shown (N, C = ends). [ ]: non-standard residue; d: D form. NMeV = CN[CH](C(=O)O)C(C)C; Sar = CNCC(=O)O
State the answer as a number, implicitly in %.

Given the entry CC(C)c1cc2c(cc1O)C[C@@]1(O)CCCC(C)(C)C1CC2 (some centres undefined) , report its measured growth inhibition. 90

Look up growth inhibition: CC(C)C1NC(=O)C(N)C(C)OC(=O)C(C(C)C)N(C)C(=O)CN(C)C(=O)C2CCCN2C1=O (centres undefined) (tested in a mixture with another compound) (H-TVP[Sar][NMeV]; ester 1-C; configuration not given here) 87.5

Look at this compound and give its reported growth inhibition. CC1CCC(C(C)C2C(O)CC3C4CCC5CC(O)CCC5(C)C4CCC32C)NC1 (centres undefined) 90

Using the record for C#CC(CC)(CC)N=Cc1cc(Cl)cc(Cl)c1O , report its growth inhibition. 88.7

###

Assay: NCI Yeast Anticancer Drug Screen. Data for the mlh1 rad18 strain (AID 175)
Details: S. cerevisiae mlh1 rad18 strain growth inhibition; at 50.0 µM; stronger effect = higher value
This is part of a sample that, as a whole, favours compounds with a hit. Of some 79,000 tested, about 15% had one in any assay.
Is growth inhibition at least 90%? Then 1. If not, 0.

Form field: growth inhibition at least 90%? Entry: CNS(=O)(=O)c1ccccc1C=C(c1ccccc1)c1ccccc1 1

Given COc1ccc(CNC(C#N)c2ccccc2)cc1OC (stereo not drawn) , state whether its growth inhibition is at least 90%. 1

hey, is growth inhibition for this one >= 90%? Fc1cccc(CSc2n[nH]c(=S)c3nc[nH]c23)c1 0

Assess whether reported growth inhibition for O=C(/C=C/c1ccccc1)c1cc2c(cc1O)OCO2 sits at 90% or higher. 0

Would you say CC(C)(C)CC(C)(C)NCc1cc(Cl)cc(Cc2cc(Cl)ccc2O)c1O shows growth inhibition at minimum 90%? 0

###

Experiment: NCI Yeast Anticancer Drug Screen. Data for the mlh1 rad18 strain (AID 175)
Details: S. cerevisiae mlh1 rad18 strain growth inhibition; at 50.0 µM (retest, dose inferred, filed as 5.0); stronger effect = higher value
Compounds without any hit were thinned out: in the full panel of roughly 79,000, 15% have a hit.
Consider the following molecules; for each one, report its growth inhibition.
Please state the figure in %; there is no need to write the unit.

Please give the measured growth inhibition for this molecule: CCCCCCCCN(CCCCCCCC)CC(O)c1cc(OCC)nc2ccccc12 (stereo not given) 95

Look up growth inhibition: Cn1cnc([N+](=O)[O-])c1Sc1nnnn1-c1ccccc1 91

Request the reported growth inhibition associated with CCC(c1ccc(O)cc1)C(CC)c1ccc(OCC(N)=O)cc1 (stereo not given) 44

# query: growth inhibition of entry Clc1nc(Cl)nc(N2CCCc3ccccc32)n1 82

Could you tell me which growth inhibition is on file for C1=C(c2ccccc2)SC=C(c2ccccc2)S1 ? -8
